# ASSAY TARGET: CYP2D6 (P450 Isozyme 2D6) (Homo sapiens, UniProt P10635)
# Sequence (P10635 whole entry): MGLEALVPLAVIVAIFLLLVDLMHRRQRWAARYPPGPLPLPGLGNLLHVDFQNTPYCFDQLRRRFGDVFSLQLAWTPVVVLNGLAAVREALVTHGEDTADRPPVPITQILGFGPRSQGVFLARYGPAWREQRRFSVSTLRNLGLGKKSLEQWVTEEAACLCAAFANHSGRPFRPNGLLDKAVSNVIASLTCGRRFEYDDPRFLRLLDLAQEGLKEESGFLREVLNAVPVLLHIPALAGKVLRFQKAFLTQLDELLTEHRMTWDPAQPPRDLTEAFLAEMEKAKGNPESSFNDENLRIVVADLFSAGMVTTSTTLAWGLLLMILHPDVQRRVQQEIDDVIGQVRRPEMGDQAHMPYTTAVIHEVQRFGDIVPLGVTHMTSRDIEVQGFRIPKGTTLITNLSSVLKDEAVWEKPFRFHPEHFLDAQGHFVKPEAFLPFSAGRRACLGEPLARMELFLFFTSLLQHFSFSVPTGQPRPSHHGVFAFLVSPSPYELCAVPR
# EXPERIMENT: Bufuralol hydroxylase activity in human microsome preparations
# CONDITION SET: human, human microsome preparations, probe bufuralol
MEASURED PROPERTY: inhibition at 10 µM

Inquiry: Reported inhibition at 10 µM for `C=C[C@H]1C[N@@]2CC[C@H]1C[C@@H]2[C@@H](O)c1ccnc2ccc(OC)cc12` : what is it?
Reply text: > 90%

====

# ASSAY TARGET: CYP2C9 (P450 Isozyme 2C9) (Homo sapiens, UniProt P11712)
# Sequence (P11712 whole entry): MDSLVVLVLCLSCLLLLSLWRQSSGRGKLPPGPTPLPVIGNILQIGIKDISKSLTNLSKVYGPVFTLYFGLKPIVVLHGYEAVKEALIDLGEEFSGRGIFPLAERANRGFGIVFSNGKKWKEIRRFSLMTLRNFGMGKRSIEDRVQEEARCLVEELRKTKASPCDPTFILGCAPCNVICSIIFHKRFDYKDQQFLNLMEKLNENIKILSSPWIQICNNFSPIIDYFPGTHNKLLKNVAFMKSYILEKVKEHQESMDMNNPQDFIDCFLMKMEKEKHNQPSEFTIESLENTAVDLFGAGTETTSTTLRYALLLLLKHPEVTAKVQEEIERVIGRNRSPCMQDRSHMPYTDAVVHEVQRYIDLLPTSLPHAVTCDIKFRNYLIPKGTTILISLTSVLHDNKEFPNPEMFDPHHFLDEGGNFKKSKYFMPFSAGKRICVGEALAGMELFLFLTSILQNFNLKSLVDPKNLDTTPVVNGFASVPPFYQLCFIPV
# EXPERIMENT: Tolbutamide hydroxylase activity in human microsome preparations
# CONDITION SET: microsomes
MEASURED PROPERTY: inhibition at 100 µM (%)
Report the figure in % without appending any unit label.

Inquiry: Give recorded inhibition at 100 µM with CYP2C9 (P450 Isozyme 2C9) (Homo sapiens, UniProt P11712) for the following compound: COC(=O)C(c1ccccc1)C1CCCCN1 (racemic) [Racemic Methylphenidate, methylphenidate]
Reply text: 19

Provenance of the data: patent US7267949B2
